Origin of the recorded values: patent US8710045B2

- EXPERIMENTAL TARGET: hERG (Homo sapiens, UniProt Q12809)
- Sequence (Q12809 whole entry): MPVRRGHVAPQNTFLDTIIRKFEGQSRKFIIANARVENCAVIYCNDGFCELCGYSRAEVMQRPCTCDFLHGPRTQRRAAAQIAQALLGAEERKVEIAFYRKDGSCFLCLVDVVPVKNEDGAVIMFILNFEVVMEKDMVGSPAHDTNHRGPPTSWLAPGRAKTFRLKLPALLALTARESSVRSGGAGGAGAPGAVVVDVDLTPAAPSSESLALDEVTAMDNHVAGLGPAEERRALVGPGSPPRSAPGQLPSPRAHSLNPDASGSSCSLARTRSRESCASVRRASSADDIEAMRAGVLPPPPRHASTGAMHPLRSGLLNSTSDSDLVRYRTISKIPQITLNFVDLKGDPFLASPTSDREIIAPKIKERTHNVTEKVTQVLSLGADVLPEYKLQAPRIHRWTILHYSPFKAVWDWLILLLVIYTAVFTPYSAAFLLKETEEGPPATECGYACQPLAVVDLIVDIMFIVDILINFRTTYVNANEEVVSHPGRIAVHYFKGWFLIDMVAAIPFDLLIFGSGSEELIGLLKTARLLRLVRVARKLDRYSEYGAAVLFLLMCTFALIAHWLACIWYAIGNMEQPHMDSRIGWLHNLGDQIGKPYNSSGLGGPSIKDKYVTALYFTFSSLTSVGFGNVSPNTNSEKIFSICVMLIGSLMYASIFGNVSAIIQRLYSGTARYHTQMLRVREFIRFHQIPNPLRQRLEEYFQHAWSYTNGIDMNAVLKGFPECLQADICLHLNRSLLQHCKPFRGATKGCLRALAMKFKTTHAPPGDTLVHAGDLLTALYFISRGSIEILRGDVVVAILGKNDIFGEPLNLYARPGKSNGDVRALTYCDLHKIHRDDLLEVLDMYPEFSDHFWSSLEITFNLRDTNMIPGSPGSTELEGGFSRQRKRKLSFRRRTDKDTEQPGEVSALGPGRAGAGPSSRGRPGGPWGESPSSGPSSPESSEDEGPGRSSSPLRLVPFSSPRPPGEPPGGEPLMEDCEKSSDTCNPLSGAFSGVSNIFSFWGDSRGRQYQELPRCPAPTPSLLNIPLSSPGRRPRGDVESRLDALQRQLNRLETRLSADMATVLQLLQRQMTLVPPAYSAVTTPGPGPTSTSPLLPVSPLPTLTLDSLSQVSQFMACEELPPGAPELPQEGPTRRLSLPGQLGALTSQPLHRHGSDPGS
- EXPERIMENT DESCRIPTION: hERG current, manual whole-cell patch clamp in hERG-transfected HEK 293 cells (Example 5)
- Assay type: cell-based
- Design: expressed in transfected cells; host or cells: HEK 293
- EXPERIMENTAL SETUP: human, HEK 293 cells stably transfected with hERG cDNA, 100 μM; read-out: Mean percent inhibition of hERG current
PROPERTY MEASURED: inhibition at 100 µM (%)
Give a bare numeral; the unit % is implied.

Entry COc1ccc2c(c1)CN(C(=O)C(=O)O)CCS2 [S36] , inhibition at 100 µM reported as 0.9

* * *

- EXPERIMENTAL TARGET: PKA-phosphorylated RyR2 (Homo sapiens)
- EXPERIMENT DESCRIPTION: FKBP12.6 rebinding assay: FKBP12.6 binding to PKA-phosphorylated RyR2 in cardiac SR
- EXPERIMENTAL SETUP: compound 0.5-1000 nM; Michaelis-Menten curve fitting
pEC50: −log10 of the molar value.
Hi, to clarify the labels: 1 covers pEC50 from 7 upward, -1 covers anything below 7.

Please tell me: is the compound `COc1ccc2c(c1)CN(S(=O)(=O)c1ccc(C)cc1)CCS2` at or over 7 in terms of pEC50?
-1

Is reported pEC50 greater than or equal to 7 here: `O=C(NO)N1CCSc2ccccc2C1`
-1

Say whether `COc1ccc2c(c1)CNCCS2` shows pEC50 of 7 or more.
1

// inclusive: pEC50 at least 7? input: `O=C(O)C(=O)N1CCSc2ccccc2C1`
1

hey, is pEC50 for this one >= 7? `COc1ccc2c(c1)CN(C(=O)CCN1CCC(Cc3ccccc3)CC1)CCS2(=O)=O`
-1

Check this compound for pEC50 at or above 7: `COc1ccc2c(c1)CN(C(=O)CI)CCS2`
1

Is reported pEC50 greater than or equal to 7 here: `COc1ccc2c(c1)CN(C(=O)N1CCN(Cc3ccc4c(c3)OCO4)CC1)CCS2`
1

Is reported pEC50 greater than or equal to 7 here: `COc1ccc2c(c1)CN(C(=O)N1CCNCC1)CCS2`
1

* * *

Would you mind telling me the reported inhibition at 5 min, 1 µM of each entry?
- EXPERIMENTAL TARGET: hERG (Homo sapiens, UniProt Q12809)
- EXPERIMENT DESCRIPTION: hERG current, PatchXpress 7000A automatic parallel patch clamp in hERG-transfected HEK 293 cells (Example 6)
- EXPERIMENTAL SETUP: human, HEK 293 cells stably transfected with hERG cDNA, Mean % hERG Inhibition, 1 μM
Numeric answer only, unit % assumed.

Entry COC(=O)C(=O)N1CCSc2ccccc2C1 [S76] — recorded inhibition at 5 min, 1 µM = 3.1

Just so you know, measured inhibition at 5 min, 1 µM for O=C(N1CCNCC1)N1CCSc2ccccc2C1 [S103] came out at 7.3

inhibition at 5 min, 1 µM measured on COc1ccc2c(c1)CNCCS2 [S26] = 12.3

For record COc1ccc2c(c1)CN(C(=O)N1CCNCC1)CCS2 [S64] the listed inhibition at 5 min, 1 µM is 9.6

Notebook: CCN(CC)C(=O)N1CCSc2ccccc2C1 [S75] , inhibition at 5 min, 1 µM read as 3.9

Recorded result, CCN(CC)C(=O)N1CCSc2ccc(OC)cc2C1 [S48] , inhibition at 5 min, 1 µM: 4.1

For this compound ( O=C(N1CCN(Cc2ccc3c(c2)OCO3)CC1)N1CCSc2ccccc2C1 [S101] ), measured inhibition at 5 min, 1 µM is 23
